Please respond with reported protein stability index for every item in the list.
B1: ZNF511 (parent)
chain: EPLPVERDPAAGAAPFRFVARPVR

- Variants of: B1
- test_summary: protein stability index of a GFP-peptide fusion (GPS, HEK-293T) (PSI 1-6); higher = more stable;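 also: lentivirally expressed fusions sorted by FACS into six bins by GFP to DsRed ratio, PSI derived from sequencing read proportions per bin multiplied by bin number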
- settings: c terminus: a fixed tail appended
Give bare numbers.

Example results:
D8C :: 2.37
P15H :: 4.05

Answer for every listed entry: what is its protein stability index? The entries follow.
1. R17W
2. E6G
3. A20N
4. P4A
5. V23E

Output:
[3.4, 2.08, 2.61, 2.88, 2.4]
